B1: C8orf76 (parent)
chain: KLAEAYLNLGPALSAALASSQKQH

# Variants of: B1
# experimental.protocol: protein stability index of a GFP-peptide fusion (GPS, HEK-293T) (PSI 1-6); higher = more stable;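 further: lentivirally expressed fusions sorted by FACS into six bins by GFP to DsRed ratio, PSI derived from sequencing read proportions per bin multiplied by bin number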
# applied.conditions: c terminus: a fixed tail appended
Entries annotated with measured protein stability index
Enter the number alone.

Solved entries:
seq.string	value.reported
KLAEAYLNLGPALSAALVSSQKQH [A18V]	2.36
KCAEAYLNLGPALSAALASSQKQH [L2C]	2.03
KLAEAYLCLGPALSAALASSQKQH [N8C]	3.63

Sample KLAEAYLNLPPALSAALASSQKQH [G10P] — what was its protein stability index?
2.58

Please do the same for KLAEAYLNLGPALSAGLASSQKQH [A16G] as well.
2.4

Also KWAEAYLNLGPALSAALASSQKQH [L2W] , if possible.
2.89
